Entries annotated with measured PEBA
# System: Caco-2 cells
# experimental.details: Drug transport across human Caco-2 cells
# Format: in vitro ADME
# condition.description: basal-to-apical, Caco-2 monolayers, pH 7.2, 37° C.
value.type: PEBA (×10⁻⁶ cm/s)

N#Cc1ccc([C@@H]2C3=C(CCC3=O)N(c3cccc(C(F)(F)F)c3)C(=O)N2C(=O)N[C@H]2CCC[C@@H]2O)cc1 [Example 45.4]    77.2
CC(C)NC(=O)N1C(=O)N(c2cccc(C(F)(F)F)c2)C2=C(C(=O)CC2)[C@H]1c1ccc(C#N)cc1S(C)(=O)=O [Example 47.5]    86.7
CS(=O)(=O)c1cc(C#N)ccc1[C@@H]1C2=C(CCC2=O)N(c2cccc(C(F)(F)F)c2)C(=O)N1C(=O)NC1CC1 [Example 47.4]    85.5
CNC(=O)N1C(=O)N(c2cccc(C(F)(F)F)c2)C2=C(C(=O)CC2)[C@H]1c1ccc(C#N)cc1S(C)(=O)=O [Example 47.1]    65.1
N#Cc1ccc(C2C3=C(CCC3=O)N(c3cccc(C(F)(F)F)c3)C(=O)N2C(=O)N[C@@H]2CCC[C@H]2O)cc1 (stereo partly drawn) [Example 42.3]    86
CC(C)NC(=O)N1C(=O)N(c2cccc(C(F)F)c2)C2=C(C(=O)CC2)C1c1ccc(C#N)cc1S(C)(=O)=O (stereo not drawn) [Example 53.4]    94.4
